Test system: SF-539 CNS
Assay: NCI tumour cell line growth inhibition, 48 h
I'd appreciate it if you could supply TGI values for the items below.

// worked examples, TGI included
molecule="CC1(C)C2CCC3(OCCO3)C1C(O)C2 (stereo unspecified)" result="> 100 µM"
molecule=CCSCN(C)c1nc(N(C)C)nc(N(C)C)n1 result="> 100 µM"
molecule=Cc1ccc2nc(-c3ccc(OCC(=O)N=Nc4c(O)[nH]c5ccccc45)cc3)[nH]c2c1 result="13.9 µM"
molecule=C[N+](C)(C)C=Nc1cccc2c1CCCC2 result="> 100 µM"
molecule=CCN(CC)CCCNC(=O)c1cc2cc(NC(=O)c3cc4cc([N+](=O)[O-])ccc4[nH]3)ccc2[nH]1 result="> 100 µM"

[in] Read the entry Cc1ccc(-n2cc(-c3ccc(Cl)cc3)c3c(NN)ncnc32)cc1 and write its reported TGI.
[out] 11.3 µM

====

I'd appreciate it if you could supply TGI values for the items below.
System: LOX IMVI melanoma
Experiment: NCI tumour cell line growth inhibition, 48 h

// worked examples, TGI included
compound="CCOC(=O)C(NC(=O)CC)(Nc1ccc(S(=O)(=O)Nc2onc(C)c2C)cc1)C(F)(F)F (stereo not given)" target_of_assay="LOX IMVI melanoma" result="> 100 µM"
compound="O=C(C#Cc1ccccc1)N1c2ccccc2CC1c1c[nH]c2ccccc12 (stereo not given)" target_of_assay="LOX IMVI melanoma" result="19.7 µM"
compound="CCOc1ccc(N=NC2C(=O)N(C(=O)CC(=O)Nc3ccccc3)N=C2C)cc1 (stereo not given)" target_of_assay="LOX IMVI melanoma" result="> 100 µM"

The following compounds each have a reported value; give each one's TGI.
1. Cc1cc(C)nc(/C(=N\NC(N)=O)C(=O)Nc2nc3ccc(C)cc3s2)c1
2. CN(C)c1ccc(/C=C2\N=C(c3ccccc3)N(c3cc(C(F)(F)F)ccc3Cl)C2=O)cc1

[out]
["> 70.5 µM", "> 100 µM"]

====

Test system: SF-268 CNS
Test: NCI tumour cell line growth inhibition, 48 h; in the data active means GI50 below about 0.43 µM; inactive means the rest
Returns: one label drawn from true (active), false (inactive)

Below are worked cases with known answers.
compound=Cc1cc(Nc2nc(C(=O)Nc3ccccc3)nc3ccccc23)n[nH]1 assigned_category=false
compound=CCn1c(-c2cc3c([nH]c4ccccc43)c(-c3cccc(O)c3)n2)n[nH]c1=S assigned_category=false
compound=O=C(Nc1ccc(F)cc1F)c1cc(Cl)ccc1O assigned_category=false
compound=CNNC(=N\S(=O)(=O)c1cc(C)c(Cl)cc1SCc1ccccc1)/N=C/c1ccc([N+](=O)[O-])s1 assigned_category=false
compound=COc1cc2ncnc(-n3ncc4cc(NC(=O)Nc5ccc(Cl)c(Cl)c5)ccc43)c2cc1OC assigned_category=false
compound="CCC(C)Oc1nc2c(c(=O)n(C)c(=O)n2C)n1C (stereo unspecified)" assigned_category=false
compound=C#CCNC(=S)N/N=C(\C)c1ccccn1 assigned_category=false
compound=N#C/C(=C\c1ccc([N+](=O)[O-])s1)c1nc2cc(Cl)ccc2s1 assigned_category=false

[in] What call does the record list for NC(=O)[C@@H](CC1CC1)[C@@H](CCC(F)(F)F)C(=O)N[C@H]1N=C(c2ccccc2)c2cccc(F)c2NC1=O ?
[out] false

[in] What call does the record list for CCCCCCCCOC(=O)c1c(C)[nH]c(/C=C2\N=C(c3ccc[nH]3)C=C2OC)c1C ?
[out] true

[in] What call does the record list for C1=C/COCc2cc(ccc2OCCN2CCCC2)Nc2nccc(n2)-c2ccc(o2)COC/1 ?
[out] false

[in] What call does the record list for NCCCCC1NC(=O)C(CC(=O)O)NC(=O)CNC(=O)C(CCCN=C(N)N)NC(=O)C(N)CSSCC(C(=O)O)NC(=O)C(CC(=O)O)NC(=O)C2CCCN2C(=O)CNC1=O (stereo unspecified) ?
[out] false

[in] What call does the record list for O=S1(=O)N(Cc2ccccc2)[C@@H](Cc2ccccc2)[C@H](O)[C@H](O)[C@H](Cc2ccccc2)N1Cc1ccccc1 ?
[out] false

[in] What call does the record list for c1cc(-c2nnc(SSc3ncnc4nc[nH]c34)o2)ccn1 ?
[out] false

[in] What call does the record list for COC(=O)c1cc2c(cc1Cl)SC1=NN(C)S(=O)N1S2(=O)=O (stereo unspecified) ?
[out] false

[in] What call does the record list for COc1cccc(CN(C)c2ccc(CO)c(Cl)c2)c1 ?
[out] false

[in] What call does the record list for O=C1C2=C(C(=O)c3cnccc31)C1C=CC2CC1 (stereo unspecified) ?
[out] false

[in] What call does the record list for CN1CCN(CCOc2ccc(-c3cnc4c(-c5cccc(F)c5)cnn4c3)cc2)CC1 ?
[out] false

[in] What call does the record list for NS(=O)(=O)c1ccc(N=Nc2c(O)[nH]c3ccc(C(=O)NCc4ccncc4)cc23)cc1 ?
[out] false

[in] What call does the record list for C=C(C)C1CC/C(C)=C/CC[C@]2(C)O[C@@H]2CCC2=CC1OC2=O (stereo partly specified) ?
[out] false

[in] What call does the record list for CCCCCN(CCCCC)CC(O)c1cc(Cl)ccc1OC (stereo unspecified) ?
[out] false

====

Test system: MOLT-4 leukemia
Assay: NCI tumour cell line growth inhibition, 48 h; in the data active means GI50 below about 0.43 µM; inactive means the rest
Returns: one label drawn from true (1) (active), false (0) (inactive)

[in] What call does the record list for CNNC(=N\S(=O)(=O)c1cc(C)c(Cl)cc1SCc1ccccc1)/N=C/c1ccc([N+](=O)[O-])s1 ?
[out] false (0)

[in] What call does the record list for NS(=O)(=O)c1ccc(N2N=C3c4ccccc4CC3C2c2cccs2)cc1 (centres undefined) ?
[out] false (0)

====

I'd appreciate it if you could supply TGI values for the items below.
Tested on: CAKI-1 renal
Assay: NCI tumour cell line growth inhibition, 48 h

// worked examples, TGI included
compound="COC(=O)C(CCC(=O)CCl)N1C(=O)c2ccccc2C1=O (stereo not drawn)" recorded_endpoint=TGI result="26.7 µM"
compound="CSc1nc(NC2OC(COC(C)=O)C(OC(C)=O)C(OC(C)=O)C2OC(C)=O)c(N=C(C)C(C)=O)c(=O)[nH]1 (stereo not drawn)" recorded_endpoint=TGI result="> 100 µM"
compound=Cn1c([C@H](C#N)C(=O)c2cc(O)ccc2[N+](=O)[O-])nc2ccccc21 recorded_endpoint=TGI result="> 100 µM"
compound=NNc1cnn(-c2ccccc2)c(=O)c1Cl recorded_endpoint=TGI result="> 100 µM"
compound=CCN(CC)CCCNC(=O)c1cc2cc(NC(=O)c3cc4cc([N+](=O)[O-])ccc4[nH]3)ccc2[nH]1 recorded_endpoint=TGI result="> 100 µM"
compound="COC(=O)c1cc2c(cc1Cl)SC1=NN(C)S(=O)N1S2(=O)=O (stereo not drawn)" recorded_endpoint=TGI result="> 100 µM"

The following compounds each have a reported value; give each one's TGI.
1. C1=C/COCc2cc(ccc2OCCN2CCCC2)Nc2nccc(n2)-c2ccc(o2)COC/1
2. O=C1C[C@@H]2[C@@H](CCC23CC3)N1
3. COCC1OC(S(=O)(=O)c2ccccc2)C(O)C(OC)C1OC (stereo not drawn)

[out]
3.28 µM
> 100 µM
> 100 µM

The following compounds each have a reported value; give each one's TGI.
1. O=c1cccccc1NCCCCCCCNc1cccccc1=O
2. CCOc1ccc(/C(C=O)=C(\Cl)c2ccc(OC)cc2)cc1

[out]
["> 100 µM", "> 100 µM"]

The following compounds each have a reported value; give each one's TGI.
1. Oc1c(Cl)cc(Cl)c2ccc(Cn3cc(-c4cc(C(F)(F)F)cc(C(F)(F)F)c4)nn3)nc12
2. O=c1c2cc(-c3ccccc3)sc2ncn1Cc1ccc(Cl)c(Cl)c1
3. CC1CN(S(=O)(=O)c2oc(-c3ccc(Cl)cc3)nc2C#N)CC(C)O1 (stereo not drawn)
4. CCCC1C(=O)Nc2cccc3ncn(c23)C1=O (stereo not drawn)

[out]
1: 2.53 µM; 2: 49.1 µM; 3: 2.93 µM; 4: > 100 µM

====

Tested on: SR leukemia
Experiment: NCI tumour cell line growth inhibition, 48 h; in the data active = GI50 below about 0.43 µM; inactive = the rest
Returns: one label drawn from active, inactive

Below are worked cases with known answers.
compound=O=C1NC(=O)C(Cc2cccc(OCc3ccccc3)c2)C(=O)N1 assigned_category=inactive
compound="CCCCCN(CCCCC)CC(O)c1cc(Cl)ccc1OC (configuration not stated)" assigned_category=inactive
compound=CCN1CCN(Cc2ccc(NC(=O)Nc3nc4ccc(Oc5ccnc(C(=O)NC)c5)cc4s3)cc2C(F)(F)F)CC1 assigned_category=active
compound=C#CCNC(=S)N/N=C(\C)c1ccccn1 assigned_category=active
compound="C=C1CC2CC[C@@]34CC5O[C@@H]6C(O[C@H]7CC[C@H](CC(=O)OC8C(C)C9OC%10C[C@]%11(C[C@@H]%12O[C@]%13(CC(C)[C@@H]%14O[C@H](C(O)CC(O)CO)C[C@@H]%14O%13)CC(C)[C@@H]%12O%11)OC%10CC9O[C@H]8C[C@H]8OC(CC[C@@H]1O2)C[C@@H](C)C8=C)OC7[C@@H]6O3)[C@H]5O4 (some centres not stated)" assigned_category=active

[in] What call does the record list for CCCCCCCC(=O)OCCCC1[C@]2(C)CC[C@@]3(C)C([C@H](C)CCC=C(C)C)CC[C@]3(C)C2CC[C@]12OC2(C)C (some centres not stated) ?
[out] inactive

[in] What call does the record list for CCOC(=O)c1c(C)n(Cc2ccc(Cl)cc2Cl)c2c1cc1oc(=O)c(=O)n3cnc2c13 ?
[out] inactive
